Numbers sourced from ChEMBL document CHEMBL4390662.

System: Candida albicans
Test: Antimicrobial activity against Candida albicans ATCC 90028 incubated for 24 hrs by microdilution assay
Format: functional
Calls of active or inactive are those of the source. The calls are words filed in the database; no cut-off is given here.
observable: MIC

Example cases with answers are listed next.
>>> measured("O=C(OC1(C(=O)Nc2ccc([N+](=O)[O-])cc2)CCCCC1)c1ccc(Cl)cc1")
"inactive"
>>> measured("COc1ccc(C(=O)OC2(C(=O)Nc3ccc([N+](=O)[O-])cc3)CCCCC2)cc1")
"inactive"
>>> measured("O=C(OC1(C(=O)Nc2ccc([N+](=O)[O-])cc2)CCCCC1)c1ccccc1[N+](=O)[O-]")
"inactive"
>>> measured("O=COC1(C(=O)Nc2ccc([N+](=O)[O-])cc2)CCCCC1")
"inactive"
>>> measured("O=C1OC2(CCCCC2)C(=O)N1c1ccc([N+](=O)[O-])cc1")
"inactive"

Readout MIC for O=C(Cc1ccccc1)OC1(C(=O)Nc2ccc([N+](=O)[O-])cc2)CCCCC1 , test system Candida albicans, was inactive

Readout MIC for O=C(OC1(C(=O)Nc2ccc([N+](=O)[O-])cc2)CCCCC1)C(O)c1ccccc1 (stereo not given) , test system Candida albicans, was inactive

Readout MIC for CC(=O)Oc1ccccc1C(=O)OC1(C(=O)Nc2ccc([N+](=O)[O-])cc2)CCCCC1 , test system Candida albicans, was inactive

Readout MIC for COC1(Nc2ccc([N+](=O)[O-])cc2)C(=O)c2ccccc2C1=O , test system Candida albicans, was inactive

Readout MIC for CCOC1(Nc2ccc([N+](=O)[O-])cc2)C(=O)c2ccccc2C1=O , test system Candida albicans, was inactive
